Where do these numbers come from? They come from PubChem BioAssay (NCI).

- Test system: NCI/ADR-RES ovarian
- method.summary: NCI-60 one-dose screen, 48 h (100 = growth as untreated, 0 = no growth, -100 = all killed)
- assay.context: 10 µM unless noted
Compounds without any hit were thinned out: in the full panel of roughly 83,000, 20% have a hit.
observed.property: growth (%)
Answer in %, number only, no unit symbol.

Some solved entries appear below for comparison.
[[record]]
molecule = "COc1cccc2c(=O)c3c(sc12)c(NCCCNCCO)nc1ccccc13"
target_desc = "NCI/ADR-RES ovarian"
output_unit = "%"
value = 60.6

[[record]]
molecule = "COc1ccc(-c2nsc3c2NC(=O)CC3c2cccc(OC)c2)cc1 (configuration not stated)"
target_desc = "NCI/ADR-RES ovarian"
output_unit = "%"
value = 32.4

[[record]]
molecule = "COc1ccc(N2C(=O)CC(c3cc(OC)c(OC)c(OC)c3)C3C2=NC(=O)N3C)cc1 (configuration not stated)"
target_desc = "NCI/ADR-RES ovarian"
output_unit = "%"
value = 109

[[record]]
molecule = "CCOC(=O)C1=CN(C)C=C(C(=O)OCC)C1c1cc(Br)c(OCC)c(OC)c1"
target_desc = "NCI/ADR-RES ovarian"
output_unit = "%"
value = 73

[[record]]
molecule = "CCn1c(-c2nonc2Nc2ccc(OC)cc2)nc2ccccc21"
target_desc = "NCI/ADR-RES ovarian"
output_unit = "%"
value = 96

[[record]]
molecule = "O=c1oc2ccc(Cl)cc2c(=O)n1-c1ccc(F)cc1F"
target_desc = "NCI/ADR-RES ovarian"
output_unit = "%"
value = 7.29

[[record]]
molecule = "COc1cc(C(=O)O/N=C(\\N)Cc2cccc3ccccc23)cc(OC)c1OC"
target_desc = "NCI/ADR-RES ovarian"
output_unit = "%"
value = 59.8

[[record]]
molecule = "CCOC(=O)c1ccc2[nH]c(-c3ccccc3)cc(=O)c2c1"
target_desc = "NCI/ADR-RES ovarian"
output_unit = "%"
value = 102


Q: # return recorded growth for entry CCCC(c1nnnn1C1CCCCC1)N1CCN(C(=O)c2ccco2)CC1 (configuration not stated)
A: 46.1

Q: # return recorded growth for entry O=C(Nc1ccc(C23CC4CC(CC(c5ccccc5)(C4)C2)C3)cc1)c1cccs1
A: 58

Q: # return recorded growth for entry COC(=O)[C@H](NC(=O)C1(C)CCC[C@]2(C)[C@H]3C[C@H]4C(C(C)C)=C[C@]3(CC[C@@H]12)[C@@H]1C(=O)CCC(=O)[C@@H]14)C(C)C (some centres not stated)
A: 96.1

Q: # return recorded growth for entry CNC(=O)c1cc(Oc2ccc(CC(=O)Nc3cc(C(C)(C)C)cn3C)cc2)ccn1
A: 72.4

====

- Test system: PC-3 prostate
- method.summary: NCI-60 one-dose screen, 48 h
- assay.context: 10 µM unless noted
Compounds without any hit were thinned out: in the full panel of roughly 83,000, 20% have a hit. Active and inactive are the calls of the source. The calls were made as follows: active = growth percent below 10; inactive = the rest.
Response enum: active, inactive

Some solved entries appear below for comparison.
[[record]]
compound = "NC(CCl)=NCCC[C@H](N)C(=O)O"
target_desc = "PC-3 prostate"
label_value = "inactive"

[[record]]
compound = "COc1ccc(C2C3=C(COC3=O)N(CCO)c3cc4c(cc32)CCC4)cc1 (configuration not stated)"
target_desc = "PC-3 prostate"
label_value = "inactive"

[[record]]
compound = "NC(=O)CSc1nc(-c2ccc(F)cc2)cc(-c2ccco2)n1"
target_desc = "PC-3 prostate"
label_value = "inactive"

[[record]]
compound = "O=c1oc2ccc(Br)cc2c(=O)n1-c1ccc(Cl)cc1F"
target_desc = "PC-3 prostate"
label_value = "active"


Q: Tell me the recorded outcome of this test for COc1cc(-c2c3c(cn2S(=O)(=O)c2ccccc2)-c2nc(N)sc2CC3)cc(OC)c1OC .
A: inactive

Q: Tell me the recorded outcome of this test for CCOC(=O)c1sc(-c2ccc(OS(=O)(=O)c3cccs3)c(C=O)c2)nc1C .
A: inactive

Q: Tell me the recorded outcome of this test for Cc1sc2ncnc(Sc3nc4ccccc4[nH]3)c2c1C .
A: active

====

- Tested on: HCC-2998 colon
- method.summary: NCI-60 one-dose screen, 48 h (100 = growth as untreated, 0 = no growth, -100 = all killed)
- assay.context: 10 µM unless noted
The panel holds about 83,000 compounds, 20% with a hit somewhere; the sample as a whole holds those more often.
observed.property: growth (%)
Answer in %, number only, no unit symbol.

Some solved entries appear below for comparison.
[[record]]
compound = "CN1CCN(Cc2ccc(NC(=O)c3cncc(C#Cc4nc(N)nc5[nH]ncc45)c3)cc2C(F)(F)F)CC1"
target_desc = "HCC-2998 colon"
output_unit = "%"
value = 133

[[record]]
compound = "COc1cc2nc(-c3cccc4cccnc34)nc(NC3CCN(Cc4ccccc4)CC3)c2cc1OC"
target_desc = "HCC-2998 colon"
output_unit = "%"
value = -91

[[record]]
compound = "Cn1c(C(=O)c2cccc3ccccc23)nc2ccccc21"
target_desc = "HCC-2998 colon"
output_unit = "%"
value = 6.79

[[record]]
compound = "CCC1=C[C@@H]2CN(C1)Cc1c([nH]c3ccccc13)[C@@](C(=O)OC)(c1cc3c(cc1OC)N(C)[C@H]1[C@@](O)(C(=O)OC)[C@H](OC(C)=O)[C@]4(CC)[C@@H]5C[C@@H]5CN5CC[C@]31[C@@H]54)C2"
target_desc = "HCC-2998 colon"
output_unit = "%"
value = -13.1

[[record]]
compound = "c1ccc2c(c1)oc1cc3sccc3nc12"
target_desc = "HCC-2998 colon"
output_unit = "%"
value = 118

[[record]]
compound = "C#CCn1cc(C=C2C(=O)N(C)C(=O)N(C)C2=O)c2cc(Cl)ccc21"
target_desc = "HCC-2998 colon"
output_unit = "%"
value = 112

[[record]]
compound = "CCOc1cccc(/C=N/NC(=O)C(=O)Nc2cccc(C(F)(F)F)c2)c1O"
target_desc = "HCC-2998 colon"
output_unit = "%"
value = 5.43

[[record]]
compound = "O=C(CCc1nnc2sc(Cc3ccccc3Cl)nn12)c1nc2ncccc2[nH]1"
target_desc = "HCC-2998 colon"
output_unit = "%"
value = 87.7

[[record]]
compound = "O=c1oc2ccc(Cl)cc2c(=O)n1-c1ccc(I)cc1F"
target_desc = "HCC-2998 colon"
output_unit = "%"
value = 16.2

[[record]]
compound = "COC(=O)c1c2c(c(C)[n+]([O-])c1C)C(=O)C(NCc1ccc(Br)cc1)=CC2=O"
target_desc = "HCC-2998 colon"
output_unit = "%"
value = 14.4


Q: # return recorded growth for entry COc1cccc2c(=O)c3c(sc12)c(NCCCNCCO)nc1ccccc13
A: 37.9

Q: # return recorded growth for entry Cc1ccc2c(n1)C(=O)C(Oc1ccc(Br)cc1)=CC2=O
A: 101

====

- Test system: MDA-MB-231 breast
- method.summary: NCI-60 one-dose screen, 48 h (100 = growth as untreated, 0 = no growth, -100 = all killed)
- assay.context: 10 µM unless noted
Compounds without any hit were thinned out: in the full panel of roughly 83,000, 20% have a hit.
Each entry gets label 0 if its growth stays under 90%, and label 1 if its growth is 90% or above.

Some solved entries appear below for comparison.
[[record]]
smi = "CN(CCc1ccccc1)C(=S)N(C(=O)c1ccc([N+](=O)[O-])cc1)c1ccc(Cl)cc1"
label_value = "label 1"

[[record]]
smi = "O=C1C(=O)c2c(ccc3ccccc23)-c2ccccc21"
label_value = "label 0"


Q: Hi, just wondering whether CCN(CC)CCCNc1ccnc2cc3ccccc3cc12 shows growth of 90% or higher.
A: label 0

Q: Hi, just wondering whether Fc1ccc(Oc2ccc(Nc3ncnc4onc(-c5ccccc5)c34)cc2)cc1 shows growth of 90% or higher.
A: label 0

====

- Test system: SF-268 CNS
- method.summary: NCI-60 one-dose screen, 48 h
- assay.context: 10 µM unless noted
The panel holds about 83,000 compounds, 20% with a hit somewhere; the sample as a whole holds those more often. Activity calls are given as the source filed them. How the source made its calls: active means growth percent below 10; inactive means the rest.
Response enum: active, inactive

Some solved entries appear below for comparison.
[[record]]
compound = "O=C1/C(=C/c2cccc(O)c2)COc2ccc(O)cc21"
target_desc = "SF-268 CNS"
label_value = "inactive"

[[record]]
compound = "COc1ccc(C2C3=C(COC3=O)N(CCO)c3cc4c(cc32)OCCO4)cc1 (stereo not drawn)"
target_desc = "SF-268 CNS"
label_value = "inactive"


Q: Tell me the recorded outcome of this test for N#CC(C#N)=Cc1c(-c2ccccc2)[nH]c2ccccc12 .
A: inactive

Q: Tell me the recorded outcome of this test for CCn1c(SCC(=O)Nc2cc(C(F)(F)F)ccc2Cl)nc2ccccc2c1=O .
A: inactive

Q: Tell me the recorded outcome of this test for O=[N+]([O-])c1cc2c(ccc3occc32)o1 .
A: inactive

Q: Tell me the recorded outcome of this test for COc1cc(C=C2C(=O)N(C)C(=O)N(C)C2=O)cc(CN2CCCCC2)c1O .
A: inactive
